Reference source: patent US20230365563A1

Below, each of the compounds is paired with its reported pIC50 value.
target: KRAS_G12D and cRAF (Homo sapiens, UniProt P01116, G12D); assay: Inhibition of KRAS_G12D/cRAF binding (Cisbio binding kit, 665/615 ratio), Effect Embodiment B; conditions: read-out: GTP-KRAS-G12D:CRAF IC50
Sequence (P01116 1-188 isoform P01116-2 G12D): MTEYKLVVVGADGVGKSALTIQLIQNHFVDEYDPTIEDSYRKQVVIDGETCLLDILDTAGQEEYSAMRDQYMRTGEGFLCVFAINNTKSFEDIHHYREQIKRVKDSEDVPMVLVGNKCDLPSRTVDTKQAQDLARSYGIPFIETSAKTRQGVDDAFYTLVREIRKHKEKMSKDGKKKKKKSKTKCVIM
pIC50: −log10 of the molar value. Structures can show the parent of a compound that is named as a salt.

>  <compound>
Oc1cc(-c2c(Cl)cc3c(N4CC5CCC(C4)N5)nc(OCCCN4C5CCCC4COC5)nc3c2F)c2ccccc2c1 (single isomer, unassigned)

>  <pIC50>
6.92

$$$$
>  <compound>
Oc1cc(-c2c(Cl)cc3c(N4CC5CCC(C4)N5)nc(OCCN4C5CCC4COC5)nc3c2F)c2ccccc2c1 (single isomer, unassigned) [Compound 124, dihydrochloride]

>  <pIC50>
6.83

$$$$
>  <compound>
CC(F)(COc1nc(N2CC3CCC(C2)N3)c2cc(Cl)c(-c3cc(O)cc4ccccc34)c(F)c2n1)CN1C2CCC1COC2 (single isomer, unassigned) [Compound 208a]

>  <pIC50>
6.96

$$$$
>  <compound>
CO[C@@H](COc1nc(N2CC3CCC(C2)N3)c2cc(Cl)c(-c3cc(O)cc4ccccc34)c(F)c2n1)CN1C2CCC1COC2 (single isomer, unassigned)

>  <pIC50>
6.66

$$$$
>  <compound>
CN(C)C1CCC(Oc2nc(N3CC4CCC(C3)N4)c3cc(Cl)c(-c4cc(O)cc5ccccc45)c(F)c3n2)C1 (single isomer, unassigned) [Compound 70c, dihydrochloride]

>  <pIC50>
6.38

$$$$
>  <compound>
CCNCCCOc1nc(N2CC3CCC(C2)N3)c2cc(Cl)c(-c3cc(O)cc4ccccc34)c(F)c2n1 (single isomer, unassigned) [Compound 105, dihydrochloride]

>  <pIC50>
6.73

$$$$
>  <compound>
CN1CCC1CCOc1nc(N2CC3CCC(C2)N3)c2cc(Cl)c(-c3cc(O)cc4ccccc34)c(F)c2n1 (single isomer, unassigned) [Compound 112a]

>  <pIC50>
6.92

$$$$
